Where do the numbers come from? From patent US9315522B2.

Measured melting point accompanies every entry in the list below.
Give your result in °C as a bare value.

* COc1cncc(C(=O)Nc2ccc(/C=C/C(=O)N3CC4C=C(c5nccs5)CC4C3)cn2)c1 (stereo not drawn) | 207

// next entry
Endpoint output: melting point of CC(C)C1Oc2cc(/C=C/C(=O)N3CC4C=C(c5ccccc5)CC4C3)cnc2NC1=O (stereo not drawn) . Value? 224.9

----------
assay-overview: Cytotoxicity MTT assay (HELAM)
Assay type: cell-based, Human
condition: human, HelaM cells, read-out: HELAM (222.125) CC50
Each item that follows carries a reported CC50 at 72 h.

• CC(C)C1Oc2cc(/C=C/C(=O)N3CC4C=C(c5nccs5)CC4C3)cnc2NC1=O (stereo not shown) = > 11 µg/mL
• COc1cncc(C(=O)Nc2ccc(/C=C/C(=O)N3CC4C=C(c5ccncc5)CC4C3)cn2)c1 (stereo not shown) = > 11.7 µg/mL

Endpoint output: CC50 at 72 h of O=C1Nc2ncc(/C=C/C(=O)N3CC4C=C(c5ccsc5)CC4C3)cc2CN2CCOCC12 (stereo not shown) . Value? > 11.6 µg/mL

I would be grateful if you could share the reported CC50 at 72 h for CC(C)C1Oc2cc(/C=C/C(=O)N3CC4C=C(c5ccncc5)CC4C3)cnc2NC1=O (stereo not shown) . > 10.8 µg/mL

So what does the record say about CC50 at 72 h for O=C1COCc2cc(/C=C/C(=O)N3CC4C=C(c5ccsc5)CC4C3)cnc2N1 (stereo not shown) ? > 10.2 µg/mL

Entry O=C(Nc1ccc(/C=C/C(=O)N2CC3C=C(c4ccccc4)CC3C2)cn1)c1cc(F)c(Cl)nc1Cl (stereo not shown) has what CC50 at 72 h? 2.34 µg/mL

// query CC50 at 72 h value for entry O=C1COCc2cc(/C=C/C(=O)N3CC4C=C(c5ccccc5)CC4C3)cnc2N1 (stereo not shown) > 10.1 µg/mL

Fill blank: measured CC50 at 72 h of the molecule O=C1CNCc2cc(/C=C/C(=O)N3CC4C=C(c5ccncc5)CC4C3)cnc2N1 (stereo not shown) is ____. > 10.1 µg/mL

Returns the measured CC50 at 72 h for the input molecule. Input: Cc1cc(N)ncc1/C=C/C(=O)N1CC2C=C(c3ccccc3)CC2C1 (stereo not shown) 4.55 µg/mL

Would you kindly share the measured CC50 at 72 h for CC(=O)N1CCN2Cc3cc(/C=C/C(=O)N4CC5C=C(c6cccs6)CC5C4)cnc3NC(=O)C2C1 (stereo not shown) ? > 12.7 µg/mL

Quick check: CC50 at 72 h of Cc1cncc(C(=O)Nc2ccc(/C=C/C(=O)N3CC4C=C(c5ccnn5C)CC4C3)cn2)c1 (stereo not shown) ? > 11.4 µg/mL

For the molecule O=C1Nc2ncc(/C=C/C(=O)N3CC4C=C(c5ccncc5)CC4C3)cc2CO1 (stereo not shown) , what CC50 at 72 h is on record? > 9.76 µg/mL

Look up CC50 at 72 h for this molecule: Cc1cncc(C(=O)Nc2ccc(/C=C/C(=O)N3CC4C=C(c5ccsc5)CC4C3)cn2)c1 (stereo not shown) 10.1 µg/mL
